- experiment_notes: In vivo pharmacokinetics, plasma (UPLC-MS/MS)
- Set-up: species or system rat
- test_parameters: male, SD, inhaled or intranasal; BA in rat plasma; pulmonary administration group, BA/AH-DPI 9 mg/kg; read-out: MRTlast (mean retention time)
property_measured: MRT last (min)
State just the number; it will be interpreted in min.

Query O=C(O)[C@H]1O[C@@H](Oc2cc3oc(-c4ccccc4)cc(=O)c3c(O)c2O)[C@H](O)[C@@H](O)[C@@H]1O yields MRT last of 45

---

- experiment_notes: In vivo pharmacokinetics, plasma (UPLC-MS/MS)
- Design: species or system rat
- test_parameters: male, SD; AH in rat plasma; tail intravenous injection group, 9 mg/kg
Where a name gives a salt, the structure may show the parent alone.
property_measured: Tmax (min)
State just the number; it will be interpreted in min.

Query Nc1c(Br)cc(Br)cc1CNC1CCC(O)CC1 (stereo not shown) [AH, ambroxol hydrochloride] yields Tmax of 1.98

---

- experiment_notes: In vivo pharmacokinetics, plasma (UPLC-MS/MS)
- Parameters: species or system rat
- test_parameters: male, SD; BA in rat plasma; tail intravenous injection group, 9 mg/kg; read-out: MRTlast (mean retention time)
property_measured: MRT last (min)
State just the number; it will be interpreted in min.

Query O=C(O)[C@H]1O[C@@H](Oc2cc3oc(-c4ccccc4)cc(=O)c3c(O)c2O)[C@H](O)[C@@H](O)[C@@H]1O [BA, baicalin] yields MRT last of 14.4

---

- experiment_notes: In vivo pharmacokinetics, plasma (UPLC-MS/MS)
- Design: species or system rat
- test_parameters: male, SD; BA in rat plasma; tail intravenous injection group, 9 mg/kg; read-out: HLz (biological half-life) (converted)
property_measured: half-life (min)
State just the number; it will be interpreted in min.

Query O=C(O)[C@H]1O[C@@H](Oc2cc3oc(-c4ccccc4)cc(=O)c3c(O)c2O)[C@H](O)[C@@H](O)[C@@H]1O yields half-life of 48.6

---

- experiment_notes: In vivo pharmacokinetics, plasma (UPLC-MS/MS)
- Design: species or system rat
- test_parameters: male, SD; rat plasma; tail intravenous injection BA/AH-DPI saline solution 9 mg/kg; 240 min; read-out: Blood concentration of AH
Counter-ions that a name gives are not always drawn.
property_measured: concentration at 240 min (ng/mL)
State just the number; it will be interpreted in ng/mL.

Query Nc1c(Br)cc(Br)cc1CNC1CCC(O)CC1 (stereo not shown) [AH, ambroxol hydrochloride] yields concentration at 240 min of 33.9

---

- experiment_notes: In vivo pharmacokinetics, lung tissue homogenate (UPLC-MS/MS)
- Parameters: species or system rat
- test_parameters: male, Sprague-Dawley (SD); rat lung tissue homogenate; tail intravenous injection BA/AH-DPI saline solution 9 mg/kg; 240 min; read-out: Drug concentration of AH in lung tissue
Where a name gives a salt, the structure may show the parent alone.
property_measured: concentration at 240 min (ng/mL)
State just the number; it will be interpreted in ng/mL.

Query Nc1c(Br)cc(Br)cc1CNC1CCC(O)CC1 (stereo not shown) [AH, ambroxol hydrochloride] yields concentration at 240 min of 68.4

---

- experiment_notes: In vivo pharmacokinetics, lung tissue homogenate (UPLC-MS/MS)
- Design: species or system rat
- test_parameters: male, Sprague-Dawley (SD); rat lung tissue homogenate; tail intravenous injection BA/AH-DPI saline solution 9 mg/kg; 360 min; read-out: Drug concentration of AH in lung tissue
Counter-ions that a name gives are not always drawn.
property_measured: concentration at 360 min (ng/mL)
State just the number; it will be interpreted in ng/mL.

Query Nc1c(Br)cc(Br)cc1CNC1CCC(O)CC1 (stereo not shown) [AH, ambroxol hydrochloride] yields concentration at 360 min of 23.4

---

- experiment_notes: In vivo pharmacokinetics, plasma (UPLC-MS/MS)
- Set-up: species or system rat
- test_parameters: male, SD; BA in rat plasma; tail intravenous injection group, 9 mg/kg
property_measured: Cmax (ng/mL)
State just the number; it will be interpreted in ng/mL.

Query O=C(O)[C@H]1O[C@@H](Oc2cc3oc(-c4ccccc4)cc(=O)c3c(O)c2O)[C@H](O)[C@@H](O)[C@@H]1O yields Cmax of 11800

---

- experiment_notes: In vivo pharmacokinetics, lung tissue homogenate (UPLC-MS/MS)
- Set-up: species or system rat
- test_parameters: male, Sprague-Dawley (SD), lung tissue (homogenate supernatant), inhaled or intranasal; BA in rat lung tissue; pulmonary administration group, BA/AH-DPI 9 mg/kg
- Procedure: SPF-grade healthy SD male rats, body weight 180-220 g, purchased from SPF (Beijing) Biotechnology Co., Ltd (Certificate No. SCXK (Beijing) 2019-0010), were conventionally reared under (23±2)° C., humidity: (50±10)%. […] 100 μL of the plasma sample or lung tissue supernatant was precisely absorbed, and 200 μL (100 ng/mL) of methanol solution containing the internal standard was added. […] The contents of BA and AH were determined by UPLC-MS/MS method. […]
property_measured: Tmax (min)
State just the number; it will be interpreted in min.

Query O=C(O)[C@H]1O[C@@H](Oc2cc3oc(-c4ccccc4)cc(=O)c3c(O)c2O)[C@H](O)[C@@H](O)[C@@H]1O yields Tmax of 2.64

---

- experiment_notes: In vivo pharmacokinetics, lung tissue homogenate (UPLC-MS/MS)
- Parameters: species or system rat
- test_parameters: male, Sprague-Dawley (SD), inhaled; rat lung tissue homogenate; pulmonary administration BA/AH-DPI 9 mg/kg; 10 min; read-out: Drug concentration of AH in lung tissue
- Procedure: SPF-grade healthy SD male rats, body weight 180-220 g, purchased from SPF (Beijing) Biotechnology Co., Ltd (Certificate No. SCXK (Beijing) 2019-0010), were conventionally reared under (23±2)° C., humidity: (50±10)%. […] 100 μL of the plasma sample or lung tissue supernatant was precisely absorbed, and 200 μL (100 ng/mL) of methanol solution containing the internal standard was added. […] The contents of BA and AH were determined by UPLC-MS/MS method. […]
Structures can show the parent of a compound that is named as a salt.
property_measured: concentration at 10 min (ng/mL)
State just the number; it will be interpreted in ng/mL.

Query Nc1c(Br)cc(Br)cc1CNC1CCC(O)CC1 (stereo not shown) [AH, ambroxol hydrochloride] yields concentration at 10 min of 2450

---

- experiment_notes: In vivo pharmacokinetics, lung tissue homogenate (UPLC-MS/MS)
- Design: species or system rat
- test_parameters: male, Sprague-Dawley (SD), lung tissue (homogenate supernatant), inhaled or intranasal; AH in rat lung tissue; pulmonary administration group, BA/AH-DPI 9 mg/kg; read-out: HLz (biological half-life) (converted)
Structures can show the parent of a compound that is named as a salt.
property_measured: half-life (h)
State just the number; it will be interpreted in h.

Query Nc1c(Br)cc(Br)cc1CNC1CCC(O)CC1 (stereo not shown) [AH, ambroxol hydrochloride] yields half-life of 1.53

---

- experiment_notes: In vivo pharmacokinetics, plasma (UPLC-MS/MS)
- Parameters: species or system rat
- test_parameters: male, SD, inhaled or intranasal; BA in rat plasma; pulmonary administration group, BA/AH-DPI 9 mg/kg
property_measured: Tmax (min)
State just the number; it will be interpreted in min.

Query O=C(O)[C@H]1O[C@@H](Oc2cc3oc(-c4ccccc4)cc(=O)c3c(O)c2O)[C@H](O)[C@@H](O)[C@@H]1O yields Tmax of 9

---

- experiment_notes: In vivo pharmacokinetics, lung tissue homogenate (UPLC-MS/MS)
- Set-up: species or system rat
- test_parameters: male, Sprague-Dawley (SD); rat lung tissue homogenate; tail intravenous injection BA/AH-DPI saline solution 9 mg/kg; 15 min; read-out: Drug concentration of BA in lung tissue
property_measured: concentration at 15 min (ng/mL)
State just the number; it will be interpreted in ng/mL.

Query O=C(O)[C@H]1O[C@@H](Oc2cc3oc(-c4ccccc4)cc(=O)c3c(O)c2O)[C@H](O)[C@@H](O)[C@@H]1O yields concentration at 15 min of 45.8

---

- experiment_notes: In vivo pharmacokinetics, plasma (UPLC-MS/MS)
- Parameters: species or system rat
- test_parameters: male, SD; rat plasma; tail intravenous injection BA/AH-DPI saline solution 9 mg/kg; 360 min; read-out: Blood concentration of BA
- Method: SPF-grade healthy SD male rats, body weight 180-220 g, purchased from SPF (Beijing) Biotechnology Co., Ltd (Certificate No. SCXK (Beijing) 2019-0010), were conventionally reared under (23±2)° C., humidity: (50±10)%. […] 100 μL of the plasma sample or lung tissue supernatant was precisely absorbed, and 200 μL (100 ng/mL) of methanol solution containing the internal standard was added. […] The contents of BA and AH were determined by UPLC-MS/MS method. […]
property_measured: concentration at 360 min (ng/mL)
State just the number; it will be interpreted in ng/mL.

Query O=C(O)[C@H]1O[C@@H](Oc2cc3oc(-c4ccccc4)cc(=O)c3c(O)c2O)[C@H](O)[C@@H](O)[C@@H]1O [BA, baicalin] yields concentration at 360 min of 2.64
